target: Glucagon receptor (Homo sapiens, UniProt P47871); test: Antagonist activity at human glucagon receptor expressed in HEK293T cells assessed as inhibition of glucagon-induced cAMP accumulation after 30 mins by HTRF assay; format: functional, cell-based
Sequence (P47871 whole entry): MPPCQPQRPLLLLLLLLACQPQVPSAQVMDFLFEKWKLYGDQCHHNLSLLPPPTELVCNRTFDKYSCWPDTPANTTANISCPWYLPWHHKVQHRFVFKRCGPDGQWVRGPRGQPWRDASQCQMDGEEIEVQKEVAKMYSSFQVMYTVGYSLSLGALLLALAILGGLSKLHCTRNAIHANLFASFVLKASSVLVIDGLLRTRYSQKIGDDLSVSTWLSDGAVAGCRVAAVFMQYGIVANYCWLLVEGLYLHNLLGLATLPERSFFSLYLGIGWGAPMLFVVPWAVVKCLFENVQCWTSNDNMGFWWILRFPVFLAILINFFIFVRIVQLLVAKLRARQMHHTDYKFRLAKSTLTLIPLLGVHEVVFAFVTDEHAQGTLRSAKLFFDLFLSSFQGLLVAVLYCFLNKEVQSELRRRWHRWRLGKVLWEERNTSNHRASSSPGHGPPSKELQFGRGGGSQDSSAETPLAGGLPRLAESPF
Quantity: IC50 (nM)

Completed entries (count: 6):
The measured IC50 associated with Cc1c(-c2cc(Cl)cc(Cl)c2)nn(C(C)c2ccc(C(=O)NCCC(=O)O)cc2)c1-c1ccc2ncccc2c1 (configuration not stated) reads 2030

The measured IC50 associated with `Cc1c(-c2cc(Cl)cc(Cl)c2)nn(Cc2ccc(C(=O)NCCC(=O)O)cc2)c1-c1ccc(Cl)cc1` reads 27300

The measured IC50 associated with Cc1ccc(-c2c(C)c(-c3cc(Cl)cc(Cl)c3)nn2C(C)c2ccc(C(=O)NCCC(=O)O)cc2)cc1 (configuration not stated) reads 830

The measured IC50 associated with Cc1c(-c2cc(Cl)cc(Cl)c2)nn(C(C)c2ccc(C(=O)NCCC(=O)O)cc2)c1-c1cccs1 (configuration not stated) reads 880

The measured IC50 associated with COc1ccc2cc(-c3c(C)c(-c4ccc(Cl)c(Cl)c4)nn3C(C)c3ccc(C(=O)NCCC(=O)O)cc3)ccc2c1 (configuration not stated) reads 460

The measured IC50 associated with `COc1ccc2cc(-c3c(C)c(-c4cc(Cl)cc(Cl)c4)nn3Cc3ccc(C(=O)NCCC(=O)O)cc3)ccc2c1` reads 7530

[a] COc1ccc2cc(-c3c(C)c(-c4cc(Cl)cc(Cl)c4)nn3C(C)c3ccc(C(=O)NCCC(=O)O)cc3)ccc2c1 (racemic)
[b] Cc1c(-c2cc(Cl)cc(Cl)c2)nn(C(C)c2ccc(C(=O)NCCC(=O)O)cc2)c1-c1ccc2[nH]ccc2c1 (configuration not stated)
[c] COc1ccc2cc(-c3c(C)c(-c4ccccc4C(F)(F)F)nn3C(C)c3ccc(C(=O)NCCC(=O)O)cc3)ccc2c1 (configuration not stated)
[d] Cc1c(-c2cc(Cl)cc(Cl)c2)nn(C(C)c2ccc(C(=O)NCCC(=O)O)cc2)c1-c1cccc(-c2ccccc2)c1 (configuration not stated)
Req: List from greatest to least IC50. When ranking, write the labels in the order the request describes.
Resp: b, c, d, a
(b: 5520 nM, c: 1700 nM, d: 450 nM, a: 220 nM)

[1] Cc1c(-c2cc(Cl)cc(Cl)c2)nn(C(C)c2ccc(C(=O)NCCC(=O)O)cc2)c1-c1ccc2c(ccn2C)c1 (configuration not stated)
[2] COc1ccc2cc(-c3c(C)c(-c4cc(Cl)cc(Cl)c4)nn3[C@@H](C)c3ccc(C(=O)NCCC(=O)O)cc3)ccc2c1
Req: Looking at recorded values for IC50, does 1 or 2 come in lower? // respond with label for picked entry
Resp: 2

[I] Cc1c(-c2cc(Cl)cc(Cl)c2)nn(C(C)c2ccc(C(=O)NCCC(=O)O)cc2)c1-c1ccccc1-c1ccccc1 (configuration not stated)
[II] COc1ccc2cc(-c3c(C)c(-c4cccc(C(F)(F)F)c4)nn3C(C)c3ccc(C(=O)NCCC(=O)O)cc3)ccc2c1 (configuration not stated)
Req: Quick check, higher IC50 between I and II ? // respond with label for picked entry
Resp: I
(I: 1490 nM, II: 440 nM)

[I] Cc1cccc(-c2c(C)c(-c3cc(Cl)cc(Cl)c3)nn2C(C)c2ccc(C(=O)NCCC(=O)O)cc2)c1 (configuration not stated)
[II] COc1ccc2cc(-c3c(C)c(-c4cc(Cl)cc(Cl)c4)nn3[C@H](C)c3ccc(C(=O)NCCC(=O)O)cc3)ccc2c1
[III] COc1ccc2cc(-c3c(C)c(-c4ccccc4)nn3C(C)c3ccc(C(=O)NCCC(=O)O)cc3)ccc2c1 (configuration not stated)
Req: List from greatest to least IC50. When ranking, write the labels in the order the request describes.
Resp: III, II, I
